# system-name: Neutrophil elastase (Homo sapiens)
# Sequence (P08246 whole entry): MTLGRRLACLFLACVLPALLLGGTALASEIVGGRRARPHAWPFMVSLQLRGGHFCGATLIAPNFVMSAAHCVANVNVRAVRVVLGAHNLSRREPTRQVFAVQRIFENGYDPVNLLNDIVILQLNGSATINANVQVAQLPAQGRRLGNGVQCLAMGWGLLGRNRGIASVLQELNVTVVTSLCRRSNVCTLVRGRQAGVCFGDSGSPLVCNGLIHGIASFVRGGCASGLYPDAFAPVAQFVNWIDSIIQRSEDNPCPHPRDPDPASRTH
# assay-remarks: Inhibitory concentration against Human leukocyte Elastase
pIC50: −log10 of the molar value.
observed-property: pIC50

1. CC(C)[C@H](NC(=O)[C@H](CCC(=O)O)NC(=O)[C@@H](N)CC(=O)O)C(=O)N[C@H](C(=O)N1CCC[C@@H]1C(=O)N[C@@H](CCc1ccc(C2CCCCC2)cc1)B1O[C@@H]2C[C@@H]3C[C@@H](C3(C)C)[C@]2(C)O1)C(C)C; 6.40
2. CC(C)[C@H](NC(=O)[C@H](CCC(=O)O)NC(=O)[C@@H](N)CC(=O)O)C(=O)N[C@H](C(=O)N1CCC[C@@H]1C(=O)N[C@@H](CCc1ccc(Br)cc1)B1O[C@@H]2C[C@@H]3C[C@@H](C3(C)C)[C@]2(C)O1)C(C)C; 5.80

a: CC(C)c1ccc(CC[C@H](NC(=O)[C@H]2CCCN2C(=O)[C@@H](NC(=O)[C@@H](NC(=O)[C@H](CCC(=O)O)NC(=O)[C@@H](N)CC(=O)O)C(C)C)C(C)C)B2O[C@@H]3C[C@@H]4C[C@@H](C4(C)C)[C@]3(C)O2)cc1
b: CC(C)[C@H](NC(=O)[C@H](CCC(=O)O)NC(=O)[C@@H](N)CC(=O)O)C(=O)N[C@H](C(=O)N1CCC[C@@H]1C(=O)N[C@@H](CCc1ccc(Oc2ccccc2)cc1)B1O[C@@H]2C[C@@H]3C[C@@H](C3(C)C)[C@]2(C)O1)C(C)C
Request: Returns: the argument ( a or b ) having the larger pIC50. Indicate your choice by writing its label.
Response: b
